// provenance: patent US8399465B2

System: LTB4 production in murine blood (LTA4H)
Test: LTB4 production by calcium ionophore-stimulated murine blood for LTA4H inhibitor activity
Assay type: cell-based, CD-1 mice
Conditions: Mus musculus; murine blood diluted 1 in 15, A23187 stimulated; single determination or average; mark after value = form tested: ′ free base, ″ hydrochloride, ^ formate; read-out: IC50
Where a name gives a salt, the structure may show the parent alone.
# IC50 per entry
Measurement kind: IC50

Compound	Measured result
O=C(C1CC1)N1CCN(Cc2coc3cc(Oc4nc5ncccc5s4)ccc23)CC1 [Example 276, formate]	77 nM
CC(=O)N[C@H]1C[C@H]2CC[C@@H](C1)N2Cc1cc2cc(Oc3nc4ccccc4s3)ccc2o1	119 nM
NC(=O)N[C@H]1C[C@H]2CC[C@@H](C1)N2Cc1coc2cc(Oc3nc4ncccc4s3)ccc12	176 nM
